Tested on: HL-60/ADR cells
Test: MTT cell viability assay, HL-60/ADR leukemia cells
Type: cell-based, human
Condition notes: Homo sapiens, HL60/ADR, 48 h, MTT, D-pen (1-400 μM) with cupric sulfate 10 μM
Value kind: IC50 (µM)
# number only, unit µM dropped from output

QUERY: Report IC50 from HL-60/ADR cells testing of OO [H2O2, hydrogen peroxide]
RESULT: 162
